B1: Osa-1-4 twister ribozyme (parent)
chain: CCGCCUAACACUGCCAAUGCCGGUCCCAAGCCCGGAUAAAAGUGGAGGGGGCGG

variants of: B1; test: self-cleavage, relative activity (ratio to wild type); higher = more cleavage; co-transcriptional
1 (yes) means recorded self-cleavage is 0.09 or above; 0 (no) means it is below 0.09.

| mutationList | cat |
| --- | --- |
| A17U A7C | 0 (no) |

Query: Decide: is the reported value of self-cleavage for C27G G48A equal to or greater than 0.09?
Reply: 0 (no)

Query: Record C14G G49A ; criterion: self-cleavage no lower than 0.09. Met?
Reply: 0 (no)

Query: Please check the record A38U G19C and state if its self-cleavage is at or above 0.09.
Reply: 0 (no)

Query: Reported self-cleavage at or above 0.09? G19U G49C
Reply: 0 (no)

Query: # check: self-cleavage of A10U is greater than or equal to 0.09
Reply: 0 (no)

Query: Determine whether measured self-cleavage meets or exceeds 0.09 for A28G U18C
Reply: 1 (yes)

Query: Could you verify whether the entry C11U C27U shows self-cleavage of no less than 0.09?
Reply: 1 (yes)

Query: Is reported self-cleavage greater than or equal to 0.09 here: A29C G13C
Reply: 0 (no)

Query: Determine whether measured self-cleavage meets or exceeds 0.09 for A40U A46U
Reply: 0 (no)

Query: Answer whether self-cleavage of C26G U12C is greater than or equal to 0.09.
Reply: 0 (no)

Query: Assess whether reported self-cleavage for C26U G30U sits at 0.09 or higher.
Reply: 0 (no)

Query: Is self-cleavage at least 0.09? Consider C52U U12A
Reply: 1 (yes)

Query: Does the reported self-cleavage for A41U U18G fall at or above the 0.09 mark?
Reply: 1 (yes)
